Exercise: for every item that follows, state its recorded IC50.
Biological target: Induced myeloid leukemia cell differentiation protein Mcl-1 (Homo sapiens, UniProt Q07820)
Sequence (Q07820 whole entry, the tested form may be a part): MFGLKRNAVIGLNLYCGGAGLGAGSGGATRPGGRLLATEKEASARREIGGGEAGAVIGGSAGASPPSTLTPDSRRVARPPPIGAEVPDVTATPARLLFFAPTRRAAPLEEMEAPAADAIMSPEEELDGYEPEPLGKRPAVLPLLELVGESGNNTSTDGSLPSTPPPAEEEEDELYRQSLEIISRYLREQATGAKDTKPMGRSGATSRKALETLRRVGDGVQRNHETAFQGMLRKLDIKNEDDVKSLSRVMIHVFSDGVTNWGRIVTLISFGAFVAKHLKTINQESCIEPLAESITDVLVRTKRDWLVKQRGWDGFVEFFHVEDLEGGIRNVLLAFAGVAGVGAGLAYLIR
Assay: Inhibition of human Mcl-1 (172 to 323 residues) expressed in Escherichia coli BL21 using biotinylated-BH3 peptide as substrate measured after 2 hrs by DELFIA displacement assay
# output: bare number, implied unit µM

Fill in IC50 for record H-AIAQALRRIGDAL-OH
1.2

Fill in IC50 for record Ac-AIAEALRRIGDAF-NH2
0.261

Fill in IC50 for record H-AIAQALRRIGDAF-OH
2.2

Fill in IC50 for record H-AIAEQLRRIGDAF-NH2
0.313

====

Target: Bcl-2-related protein A1 (Homo sapiens)
Test: Inhibition of human Bfl-1 (1 to 149 residues) expressed in Rosetta-gami (DE3) using biotinylated-BH3 peptide as substrate measured after 2 hrs by DELFIA displacement assay
Non-standard residues stand in square brackets, D forms with d. Residues, ends and D or L forms follow the SMILES beside them. *: point of attachment. Benzoyl(3-SO2F) = O=C(c1cccc(S(=O)(=O)F)c1)*; Dap = NC[C@H](N)C(=O)O
property.label: IC50

Fill in IC50 for record CC[C@H](C)[C@H](NC(=O)[C@H](CCCNC(=N)N)NC(=O)[C@H](CCCNC(=N)N)NC(=O)[C@H](CC(C)C)NC(=O)[C@H](CCC(N)=O)NC(=O)[C@H](CCC(=O)O)NC(=O)[C@H](C)NC(=O)[C@@H](NC(=O)[C@H](CNC(=O)c1cccc(S(=O)(=O)F)c1)NC(C)=O)[C@@H](C)CC)C(=O)NCC(=O)N[C@@H](CC(=O)O)C(=O)N[C@@H](CCCNC(=N)N)C(=O)N[C@@H](Cc1ccccc1)C(N)=O (Ac-[Dap](Benzoyl(3-SO2F))IAEQLRRIGDRF-NH2)
> 400 nM

====

Target: Bcl-2-related protein A1 (Homo sapiens, UniProt Q16548)
Sequence (Q16548 whole entry, the tested form may be a part): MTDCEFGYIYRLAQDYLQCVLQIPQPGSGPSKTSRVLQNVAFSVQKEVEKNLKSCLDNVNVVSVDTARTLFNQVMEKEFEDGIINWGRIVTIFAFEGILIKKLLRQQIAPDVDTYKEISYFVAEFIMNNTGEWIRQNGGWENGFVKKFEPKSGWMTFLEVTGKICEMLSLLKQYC
Test: Inhibition of human Bfl-1 (1 to 149 residues) expressed in Rosetta-gami (DE3) using biotinylated-BH3 peptide as substrate measured after 2 hrs by DELFIA displacement assay
Non-standard residues stand in square brackets, D forms with d. Residues, ends and D or L forms follow the SMILES beside them. *: point of attachment. Benzoyl(2-OMe,5-SO2F) = COc1ccc(S(=O)(=O)F)cc1C(=O)*; Benzoyl(4-SO2F) = O=C(c1ccc(S(=O)(=O)F)cc1)*; X1 = Cc1ccc(S(=O)(=O)F)cc1C(=O)*; Dap = NC[C@H](N)C(=O)O
property.label: IC50

Give IC50; test system Bcl-2-related protein A1 (Homo sapiens, UniProt Q16548); compound CC[C@H](C)[C@H](NC(=O)[C@H](CCCNC(=N)N)NC(=O)[C@H](CCCNC(=N)N)NC(=O)[C@H](CC(C)C)NC(=O)[C@H](CCC(N)=O)NC(=O)[C@H](CCC(=O)O)NC(=O)[C@H](C)NC(=O)[C@@H](NC(=O)[C@H](CNC(=O)c1cc(S(=O)(=O)F)ccc1C)NC(C)=O)[C@@H](C)CC)C(=O)NCC(=O)N[C@@H](CC(=O)O)C(=O)N[C@@H](CCCNC(=N)N)C(=O)N[C@@H](Cc1ccccc1)C(N)=O (Ac-[Dap](X1)IAEQLRRIGDRF-NH2)
> 1 µM

Give IC50; test system Bcl-2-related protein A1 (Homo sapiens, UniProt Q16548); compound CC[C@H](C)[C@H](NC(=O)[C@H](CCCNC(=N)N)NC(=O)[C@H](CCCNC(=N)N)NC(=O)[C@H](CC(C)C)NC(=O)[C@H](CCC(N)=O)NC(=O)[C@H](CCC(=O)O)NC(=O)[C@H](C)NC(=O)[C@@H](NC(=O)[C@H](CNC(=O)c1ccc(S(=O)(=O)F)cc1)NC(C)=O)[C@@H](C)CC)C(=O)NCC(=O)N[C@@H](CC(=O)O)C(=O)N[C@@H](CCCNC(=N)N)C(=O)N[C@@H](Cc1ccccc1)C(N)=O (Ac-[Dap](Benzoyl(4-SO2F))IAEQLRRIGDRF-NH2)
> 5 µM

Give IC50; test system Bcl-2-related protein A1 (Homo sapiens, UniProt Q16548); compound CC[C@H](C)[C@H](NC(=O)[C@H](CCCNC(=N)N)NC(=O)[C@H](CCCNC(=N)N)NC(=O)[C@H](CC(C)C)NC(=O)[C@H](CCC(N)=O)NC(=O)[C@H](CCC(=O)O)NC(=O)[C@H](C)NC(=O)[C@@H](NC(=O)[C@H](CNC(=O)c1cc(S(=O)(=O)F)ccc1OC)NC(C)=O)[C@@H](C)CC)C(=O)NCC(=O)N[C@@H](CC(=O)O)C(=O)N[C@@H](CCCNC(=N)N)C(=O)N[C@@H](Cc1ccccc1)C(N)=O (Ac-[Dap](Benzoyl(2-OMe,5-SO2F))IAEQLRRIGDRF-NH2)
> 0.25 µM

====

Target: Induced myeloid leukemia cell differentiation protein Mcl-1 (Homo sapiens)
Experiment: Inhibition of human Mcl-1 (172 to 323 residues) expressed in Escherichia coli BL21 using biotinylated-BH3 peptide as substrate measured after 2 hrs by DELFIA displacement assay
Non-standard residues stand in square brackets, D forms with d. Residues, ends and D or L forms follow the SMILES beside them. ξ: configuration not given here. *: point of attachment. X1 = Cc1ccc(S(=O)(=O)F)cc1C(=O)*; hSer = N[C@@H](CCO)C(=O)O; Dap = NC[C@H](N)C(=O)O; ξAbu = CCC(N)C(=O)O
property.label: IC50 (nM)
# output: bare number, implied unit nM

Fill in IC50 for record CCC(NC(=O)[C@H](CCC(N)=O)NC(=O)[C@H](C)NC(=O)[C@@H](NC(=O)[C@H](C)N)[C@@H](C)CC)C(=O)N[C@@H](CC(C)C)C(=O)N[C@@H](CCCNC(=N)N)C(=O)N[C@@H](CCCNC(=N)N)C(=O)N[C@H](C(=O)NCC(=O)N[C@@H](CC(=O)O)C(=O)N[C@@H](C)C(=O)N[C@@H](Cc1ccccc1)C(=O)O)[C@@H](C)CC (stereo partly drawn) (H-AIAQ[ξAbu]LRRIGDAF-OH)
1300

Fill in IC50 for record CC[C@H](C)[C@H](NC(=O)[C@H](CCCNC(=N)N)NC(=O)[C@H](CCCNC(=N)N)NC(=O)[C@H](CC(C)C)NC(=O)[C@H](CCO)NC(=O)[C@H](CCC(N)=O)NC(=O)[C@H](C)NC(=O)[C@H](CC(C)C)NC(=O)[C@H](C)N)C(=O)NCC(=O)N[C@@H](CC(=O)O)C(=O)N[C@@H](C)C(=O)N[C@@H](Cc1ccccc1)C(=O)O (H-ALAQ[hSer]LRRIGDAF-OH)
3000

Fill in IC50 for record CC[C@H](C)[C@H](NC(=O)[C@H](CCCNC(=N)N)NC(=O)[C@H](CCCNC(=N)N)NC(=O)[C@H](CC(C)C)NC(=O)[C@H](CCC(N)=O)NC(=O)[C@H](CCC(=O)O)NC(=O)[C@H](C)NC(=O)[C@@H](NC(=O)[C@H](CNC(=O)c1cc(S(=O)(=O)F)ccc1C)NC(C)=O)[C@@H](C)CC)C(=O)NCC(=O)N[C@@H](CC(=O)O)C(=O)N[C@@H](CCCNC(=N)N)C(=O)N[C@@H](Cc1ccccc1)C(N)=O (Ac-[Dap](X1)IAEQLRRIGDRF-NH2)
19.1

====

Exercise: for every item that follows, state its recorded half-life.
Experiment: Stability of the compound in pH 7.4 buffer assessed as half life by one-dimensional 1H-NMR analysis
Assay type: physicochemical
Non-standard residues stand in square brackets, D forms with d. Residues, ends and D or L forms follow the SMILES beside them. *: point of attachment. Benzoyl(2-OMe,5-SO2F) = COc1ccc(S(=O)(=O)F)cc1C(=O)*; X1 = Cc1ccc(S(=O)(=O)F)cc1C(=O)*; Dap = NC[C@H](N)C(=O)O

Fill in half-life for record CC[C@H](C)[C@H](NC(=O)[C@H](CCCNC(=N)N)NC(=O)[C@H](CCCNC(=N)N)NC(=O)[C@H](CC(C)C)NC(=O)[C@H](CCC(N)=O)NC(=O)[C@H](CCC(=O)O)NC(=O)[C@H](C)NC(=O)[C@@H](NC(=O)[C@H](CNC(=O)c1cc(S(=O)(=O)F)ccc1C)NC(C)=O)[C@@H](C)CC)C(=O)NCC(=O)N[C@@H](CC(=O)O)C(=O)N[C@@H](CCCNC(=N)N)C(=O)N[C@@H](Cc1ccccc1)C(N)=O (Ac-[Dap](X1)IAEQLRRIGDRF-NH2)
> 3.5 h

Fill in half-life for record CC[C@H](C)[C@H](NC(=O)[C@H](CCCNC(=N)N)NC(=O)[C@H](CCCNC(=N)N)NC(=O)[C@H](CC(C)C)NC(=O)[C@H](CCC(N)=O)NC(=O)[C@H](CCC(=O)O)NC(=O)[C@H](C)NC(=O)[C@@H](NC(=O)[C@H](CNC(=O)c1cc(S(=O)(=O)F)ccc1OC)NC(C)=O)[C@@H](C)CC)C(=O)NCC(=O)N[C@@H](CC(=O)O)C(=O)N[C@@H](CCCNC(=N)N)C(=O)N[C@@H](Cc1ccccc1)C(N)=O (Ac-[Dap](Benzoyl(2-OMe,5-SO2F))IAEQLRRIGDRF-NH2)
> 3.5 h

Source: ChEMBL document CHEMBL5055620
